Hey, just so you know, these numbers are from ChEMBL document CHEMBL4627344.

# Tested on: MOLT-4
# experiment description: Antiproliferative activity against human MOLT4 cells assessed as inhibition of cell growth measured after 48 hrs by SRB assay
# Assay type: functional
# run conditions: MOLT-4, 48 h
observed property: GI50 (nM)
Give the value, in units of nM, as a plain number.

The compound listed as O=C1CC(c2ccccc2)Cc2nc3c(Br)cc(Br)cc3cc21 (stereo not given) has a reported GI50 of 104

The compound listed as COc1ccc2nc3c(cc2c1)C(=O)CC(C(F)(F)F)C3 (stereo not given) has a reported GI50 of 88.2

The compound listed as COc1ccc2nc3c(cc2c1)C(=O)CC(c1ccccc1)C3 (stereo not given) has a reported GI50 of 431

The compound listed as O=C1CC(c2ccccc2)Cc2nc3ccc(Cl)cc3cc21 (stereo not given) has a reported GI50 of 67.5

The compound listed as O=C1CC(c2ccccc2)Cc2nc3ccc(Br)cc3cc21 (stereo not given) has a reported GI50 of 53.7

###

# System: SF-539
# experiment description: Antiproliferative activity against human SF539 cells assessed as inhibition of cell growth at 10 uM measured after 48 hrs by SRB assay relative to control
# Format: functional
# run conditions: SF-539, 48 h, read-out: GI
observed property: inhibition of growth at 10 µM

The compound listed as O=C1CC(c2ccccc2)Cc2nc3ccc(Cl)cc3cc21 (stereo not given) has a reported inhibition of growth at 10 µM of 112%

The compound listed as O=C1CC(c2ccccc2)Cc2nc3ccc(Br)cc3cc21 (stereo not given) has a reported inhibition of growth at 10 µM of 98.4%

The compound listed as O=C1CC(c2ccccc2)Cc2nc3c(Br)cc(Br)cc3cc21 (stereo not given) has a reported inhibition of growth at 10 µM of 93.1%

The compound listed as COc1ccc2nc3c(cc2c1)C(=O)CC(C(F)(F)F)C3 (stereo not given) has a reported inhibition of growth at 10 µM of 77.4%

The compound listed as COc1ccc2nc3c(cc2c1)C(=O)CC(c1ccccc1)C3 (stereo not given) has a reported inhibition of growth at 10 µM of 92.1%

###

# System: ACHN
# experiment description: Antiproliferative activity against human ACHN cells assessed as inhibition of cell growth measured after 48 hrs by SRB assay
# Type: functional
Mark 1.0 for GI50 under 600 nM, 0.0 if at or over.

Enquiry: Below 600 nM on GI50? Entry COc1ccc2nc3c(cc2c1)C(=O)CC(C(F)(F)F)C3 (stereo not given)
Return: 0.0

Enquiry: Below 600 nM on GI50? Entry O=C1CC(c2ccccc2)Cc2nc3ccc(Cl)cc3cc21 (stereo not given)
Return: 1.0

Enquiry: Below 600 nM on GI50? Entry COc1ccc2nc3c(cc2c1)C(=O)CC(c1ccccc1)C3 (stereo not given)
Return: 0.0

###

# Tested on: K562
# experiment description: Antiproliferative activity against human K562 cells assessed as inhibition of cell growth measured after 48 hrs by SRB assay
# Assay type: functional
# run conditions: K562, 48 h
I'd be grateful if you could share measured GI50 for these entries.
Give the value, in units of nM, as a plain number.

The compound listed as O=C1CC(c2ccccc2)Cc2nc3ccc(Cl)cc3cc21 (stereo not given) has a reported GI50 of 119

The compound listed as COc1ccc2nc3c(cc2c1)C(=O)CC(c1ccccc1)C3 (stereo not given) has a reported GI50 of 344

The compound listed as COc1ccc2nc3c(cc2c1)C(=O)CC(C(F)(F)F)C3 (stereo not given) has a reported GI50 of 437

The compound listed as O=C1CC(c2ccccc2)Cc2nc3c(Br)cc(Br)cc3cc21 (stereo not given) has a reported GI50 of 67.6

The compound listed as O=C1CC(c2ccccc2)Cc2nc3ccc(Br)cc3cc21 (stereo not given) has a reported GI50 of 175

###

# Tested on: IGROV-1
# experiment description: Antiproliferative activity against human IGROV1 cells assessed as inhibition of cell growth measured after 48 hrs by SRB assay
# Assay type: functional
# run conditions: IGROV-1, 48 h
I'd be grateful if you could share measured log10 of GI50 for these entries.
A value of 2 here means GI50 of 100 in nM, since values are log10.

The compound listed as O=C1CC(c2ccccc2)Cc2nc3c(Br)cc(Br)cc3cc21 (stereo not given) has a reported log10 of GI50 of 2.10

The compound listed as COc1ccc2nc3c(cc2c1)C(=O)CC(c1ccccc1)C3 (stereo not given) has a reported log10 of GI50 of 3.36

The compound listed as O=C1CC(c2ccccc2)Cc2nc3ccc(Cl)cc3cc21 (stereo not given) has a reported log10 of GI50 of 2.57

The compound listed as O=C1CC(c2ccccc2)Cc2nc3ccc(Br)cc3cc21 (stereo not given) has a reported log10 of GI50 of 2.63

The compound listed as COc1ccc2nc3c(cc2c1)C(=O)CC(C(F)(F)F)C3 (stereo not given) has a reported log10 of GI50 of 2.89

###

# Test system: DU-145
# experiment description: Antiproliferative activity against human DU145 cells assessed as inhibition of cell growth measured after 48 hrs by SRB assay
# Assay type: functional
# run conditions: DU-145, 48 h
Mark YES for GI50 under 600 nM, NO if at or over.

Enquiry: Below 600 nM on GI50? Entry O=C1CC(c2ccccc2)Cc2nc3c(Br)cc(Br)cc3cc21 (stereo not given)
Return: YES

Enquiry: Below 600 nM on GI50? Entry O=C1CC(c2ccccc2)Cc2nc3ccc(Br)cc3cc21 (stereo not given)
Return: YES

Enquiry: Below 600 nM on GI50? Entry COc1ccc2nc3c(cc2c1)C(=O)CC(C(F)(F)F)C3 (stereo not given)
Return: NO

Enquiry: Below 600 nM on GI50? Entry O=C1CC(c2ccccc2)Cc2nc3ccc(Cl)cc3cc21 (stereo not given)
Return: YES

###

I'd be grateful if you could share measured GI50 for these entries.
# System: MDA-MB-435
# experiment description: Antiproliferative activity against human MDA-MB-435 cells assessed as inhibition of cell growth measured after 48 hrs by SRB assay
# Format: functional
# run conditions: MDA-MB-435, 48 h
Enter the number, and then the unit.

The molecule listed as COc1ccc2nc3c(cc2c1)C(=O)CC(C(F)(F)F)C3 (stereo not given) has a reported GI50 of 0.143 µM

The molecule listed as O=C1CC(c2ccccc2)Cc2nc3ccc(Br)cc3cc21 (stereo not given) has a reported GI50 of 0.0271 µM

The molecule listed as O=C1CC(c2ccccc2)Cc2nc3ccc(Cl)cc3cc21 (stereo not given) has a reported GI50 of 0.0266 µM

The molecule listed as COc1ccc2nc3c(cc2c1)C(=O)CC(c1ccccc1)C3 (stereo not given) has a reported GI50 of 0.137 µM

The molecule listed as O=C1CC(c2ccccc2)Cc2nc3c(Br)cc(Br)cc3cc21 (stereo not given) has a reported GI50 of 0.211 µM

###

I'd be grateful if you could share measured GI50 for these entries.
# System: MDA-MB-468
# experiment description: Antiproliferative activity against human MDA-MB-468 cells assessed as inhibition of cell growth measured after 48 hrs by SRB assay
# Type: functional
# run conditions: MDA-MB-468, 48 h
Give the value, in units of µM, as a plain number.

Summary line: O=C1CC(c2ccccc2)Cc2nc3c(Br)cc(Br)cc3cc21 (centres undefined) , MDA-MB-468, reported GI50 = 1.28

Summary line: O=C1CC(c2ccccc2)Cc2nc3ccc(Br)cc3cc21 (centres undefined) , MDA-MB-468, reported GI50 = 2.84

Summary line: COc1ccc2nc3c(cc2c1)C(=O)CC(C(F)(F)F)C3 (centres undefined) , MDA-MB-468, reported GI50 = 1.87

Summary line: O=C1CC(c2ccccc2)Cc2nc3ccc(Cl)cc3cc21 (centres undefined) , MDA-MB-468, reported GI50 = 2.47

###

# Tested on: SNB-75
# experiment description: Antiproliferative activity against human SNB75 cells assessed as inhibition of cell growth measured after 48 hrs by SRB assay
# Format: functional
# run conditions: SNB-75, 48 h
I'd be grateful if you could share measured log10 GI50 for these entries.
A value of 2 here means GI50 of 100 in nM, since values are log10.

The compound listed as COc1ccc2nc3c(cc2c1)C(=O)CC(c1ccccc1)C3 (stereo not given) has a reported log10 GI50 of 2.76

The compound listed as O=C1CC(c2ccccc2)Cc2nc3c(Br)cc(Br)cc3cc21 (stereo not given) has a reported log10 GI50 of 2.30

The compound listed as O=C1CC(c2ccccc2)Cc2nc3ccc(Cl)cc3cc21 (stereo not given) has a reported log10 GI50 of 2.33

The compound listed as COc1ccc2nc3c(cc2c1)C(=O)CC(C(F)(F)F)C3 (stereo not given) has a reported log10 GI50 of 3.33

The compound listed as O=C1CC(c2ccccc2)Cc2nc3ccc(Br)cc3cc21 (stereo not given) has a reported log10 GI50 of 2.32
